// data source = ChEMBL document CHEMBL1127825

# measurement_notes: In vitro therapeutic index value is the ratio between IC50 values of [J] and [P]
# Assay type: cell-based
# condition_parameters: human, Jurkat cells; read-out: TI
Reported selectivity ratio by item:

[Q] What value of measured selectivity ratio is listed for CN(C)Cc1ccc(Nc2c3ccc(N)cc3nc3cc(N)ccc23)cc1 ?
[A] > 500

[Q] Look at this compound and give its reported selectivity ratio. CN(C)C(=O)c1ccc(Nc2c3ccc(N)cc3nc3cc(N)ccc23)cc1
[A] > 33

[Q] Any idea what its selectivity ratio is? The compound is Nc1ccc2c(Nc3ccc(CN4CCCCC4)cc3)c3ccc(N)cc3nc2c1
[A] > 100

* * *

# measurement_notes: In vitro therapeutic index value is the ratio between IC50 values of [J] and [P]
# Assay type: cell-based
# condition_parameters: human, Jurkat cells; read-out: TI
observed_property: selectivity ratio

Use the examples below as a reference point.
>>> value_reported("COc1cc(NS(C)(=O)=O)ccc1Nc1c2ccccc2nc2ccccc12 [AMSACRINE]")
"< 1.5"
>>> value_reported("COc1cc(NS(C)(=O)=O)ccc1Nc1c2ccc(N(C)C)cc2nc2cc(N(C)C)ccc12")
"< 2.5"
>>> value_reported("CNC(=O)c1ccc(Nc2c3ccc(N)cc3nc3cc(N)ccc23)cc1")
"> 500"

Moving on to the next compound.
[Q] Query: selectivity ratio; subject: NC(=O)c1ccc(Nc2c3ccc(N)cc3nc3cc(N)ccc23)cc1
[A] > 285
